These data points were gathered from ChEMBL document CHEMBL1147715.

Quick reference: IC50 of the listed items.
# assay.protocol: Inhibition of Mycobacterium tuberculosis DNA gyrase
Numeric answer only, unit mg/L assumed.

IC50 reported for this compound COc1c(N2CCNC(C)C2)c(F)cc2c(=O)c(C(=O)O)cn(C3CC3)c12 (configuration not stated) : 4

IC50 reported for this compound COc1c(N2CCN(Cn3c(O)c(/N=N/C(N)=O)c4cc(Cl)ccc43)C(C)C2)c(F)cc2c(=O)c(C(=O)O)cn(C3CC3)c12 (configuration not stated) : 4

IC50 reported for this compound COc1c(N2CCN(Cn3c(O)c(/N=N/C(=N)S)c4cc(F)ccc43)C(C)C2)c(F)cc2c(=O)c(C(=O)O)cn(C3CC3)c12 (configuration not stated) : 8

IC50 reported for this compound COc1c(N2CCN(Cn3c(O)c(/N=N/C(N)=O)c4cc(C)ccc43)C(C)C2)c(F)cc2c(=O)c(C(=O)O)cn(C3CC3)c12 (configuration not stated) : 4.5

IC50 reported for this compound COc1c(N2CCN(Cn3c(O)c(/N=N/C(N)=O)c4cc(F)ccc43)C(C)C2)c(F)cc2c(=O)c(C(=O)O)cn(C3CC3)c12 (configuration not stated) : 4

IC50 reported for this compound COc1c(N2CCN(Cn3c(O)c(/N=N/C(N)=O)c4ccccc43)C(C)C2)c(F)cc2c(=O)c(C(=O)O)cn(C3CC3)c12 (configuration not stated) : 3

IC50 reported for this compound COc1c(N2CCN(CN3C(=O)/C(=N\c4ccc(S(=O)(=O)Nc5ncccn5)cc4)c4cc(C)ccc43)C(C)C2)c(F)cc2c(=O)c(C(=O)O)cn(C3CC3)c12 (configuration not stated) : 3
